Reported IC50 values for the following compounds.
- System: 885512-296-R-J2-PDC complex spheroid viability;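 further: spheroids exposed to the compounds for one week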
- assaySummary: Anticancer human tumor 885512-296-R-J2-PDC patient-derived breast carcinoma cell line growth inhibition [GQUAD]
- conditionInfo: curve of first compound; second compound 1 µM
measuredQuantity: IC50

compound: C=CCn1c(=O)c2cnc(Nc3ccc(N4CCN(C)CC4)cc3)nc2n1-c1cccc(C(C)(C)O)n1 + CN(C)c1ccc(Nc2c3ccc(NC(=O)CCN4CCCC4)cc3nc3cc(NC(=O)CCN4CCCC4)ccc23)cc1
measuredQuantity: IC50
resultValue: 462 nM
//
compound: C=CCn1c(=O)c2cnc(Nc3ccc(N4CCN(C)CC4)cc3)nc2n1-c1cccc(C(C)(C)O)n1 + Cc1[nH]c2ccc(F)cc2c1-c1nc2c3cccnc3c3ncccc3c2[nH]1
measuredQuantity: IC50
resultValue: 1460 nM
//
compound: O=c1[nH]cc(F)c(=O)[nH]1 + Cc1[nH]c2ccc(F)cc2c1-c1nc2c3cccnc3c3ncccc3c2[nH]1
measuredQuantity: IC50
resultValue: > 10000 nM
//
compound: COc1cc(C2c3cc4c(cc3C(OC3OC5COC(C)OC5C(O)C3O)C3COC(=O)C23)OCO4)cc(OC)c1O (stereo not given) + CN(C)c1ccc(Nc2c3ccc(NC(=O)CCN4CCCC4)cc3nc3cc(NC(=O)CCN4CCCC4)ccc23)cc1
measuredQuantity: IC50
resultValue: 574 nM
//
compound: Nc1ccn(C2OC(CO)C(O)C2(F)F)c(=O)n1 (stereo not given) + Cc1cnc(CNC(=O)c2c(=O)c3ccc(N4CCCN(C)CC4)nc3n3c2sc2ccccc23)cn1
measuredQuantity: IC50
resultValue: < 31.6 nM
//
compound: CC[C@@]1(O)C(=O)OCc2c1cc1n(c2=O)Cc2cc3c(CN(C)C)c(O)ccc3nc2-1 + Cc1cnc(CNC(=O)c2c(=O)c3ccc(N4CCCN(C)CC4)nc3n3c2sc2ccccc23)cn1
measuredQuantity: IC50
resultValue: < 0.999 nM
//
compound: COc1ccc([C@@H](O)c2cc(-c3ncnc4cc(N5CCOCC5)ccc34)c(F)cc2Cl)nn1 + Cc1cnc(CNC(=O)c2c(=O)c3ccc(N4CCCN(C)CC4)nc3n3c2sc2ccccc23)cn1
measuredQuantity: IC50
resultValue: < 31.6 nM
//
compound: O=C(c1cc(Cc2n[nH]c(=O)c3ccccc23)ccc1F)N1CCN(C(=O)C2CC2)CC1 + Cc1cnc(CNC(=O)c2c(=O)c3ccc(N4CCCN(C)CC4)nc3n3c2sc2ccccc23)cn1
measuredQuantity: IC50
resultValue: < 31.6 nM
//
compound: CC1COCCN1c1cc(C2(O)CC3CCC(C2)O3)c2cnn(-c3ccn[nH]3)c2n1 (stereo not given) + Cc1cnc(CNC(=O)c2c(=O)c3ccc(N4CCCN(C)CC4)nc3n3c2sc2ccccc23)cn1
measuredQuantity: IC50
resultValue: < 31.6 nM
//
compound: CCCS(=O)(=O)Nc1ccc(F)c(C(=O)c2c[nH]c3ncc(-c4ccc(Cl)cc4)cc23)c1F + Cc1cnc(CNC(=O)c2c(=O)c3ccc(N4CCCN(C)CC4)nc3n3c2sc2ccccc23)cn1
measuredQuantity: IC50
resultValue: < 31.6 nM
//
compound: O=C(NO)c1cnc(N2CCN(S(=O)(=O)c3ccc4ccccc4c3)CC2)nc1 + Cc1[nH]c2ccc(F)cc2c1-c1nc2c3cccnc3c3ncccc3c2[nH]1
measuredQuantity: IC50
resultValue: < 31.6 nM
//
compound: CC(=O)O[C@H]1C(=O)[C@@]2(C)[C@H]([C@H](OC(=O)c3ccccc3)[C@]3(O)C[C@H](OC(=O)[C@H](O)[C@@H](NC(=O)c4ccccc4)c4ccccc4)C(C)=C1C3(C)C)[C@]1(OC(C)=O)CO[C@@H]1C[C@@H]2O + Cc1[nH]c2ccc(F)cc2c1-c1nc2c3cccnc3c3ncccc3c2[nH]1
measuredQuantity: IC50
resultValue: 117 nM
//
compound: CC(C)(O)C1CCC(Nc2ccc3ncc(-c4cccc(C(F)(F)F)c4)n3n2)CC1 (stereo not given) + Cc1cnc(CNC(=O)c2c(=O)c3ccc(N4CCCN(C)CC4)nc3n3c2sc2ccccc23)cn1
measuredQuantity: IC50
resultValue: < 31.6 nM
//
compound: Cn1ncnc1[C@H]1c2n[nH]c(=O)c3cc(F)cc(c23)N[C@@H]1c1ccc(F)cc1 + Cc1cnc(CNC(=O)c2c(=O)c3ccc(N4CCCN(C)CC4)nc3n3c2sc2ccccc23)cn1
measuredQuantity: IC50
resultValue: < 0.999 nM
//
compound: O=C(NO)c1cnc(N2CCN(S(=O)(=O)c3ccc4ccccc4c3)CC2)nc1 + Cc1cnc(CNC(=O)c2c(=O)c3ccc(N4CCCN(C)CC4)nc3n3c2sc2ccccc23)cn1
measuredQuantity: IC50
resultValue: < 31.6 nM
//
compound: CC(=O)O[C@H]1C(=O)[C@@]2(C)[C@H]([C@H](OC(=O)c3ccccc3)[C@]3(O)C[C@H](OC(=O)[C@H](O)[C@@H](NC(=O)c4ccccc4)c4ccccc4)C(C)=C1C3(C)C)[C@]1(OC(C)=O)CO[C@@H]1C[C@@H]2O + Cc1cnc(CNC(=O)c2c(=O)c3ccc(N4CCCN(C)CC4)nc3n3c2sc2ccccc23)cn1
measuredQuantity: IC50
resultValue: < 31.6 nM
//
compound: Cc1cccc(N(C)C(=O)C2C(O)CCN2c2nc(C)cc(C(F)(F)F)c2C#N)c1 (stereo not given) + Cc1cnc(CNC(=O)c2c(=O)c3ccc(N4CCCN(C)CC4)nc3n3c2sc2ccccc23)cn1
measuredQuantity: IC50
resultValue: < 31.6 nM
//
compound: CC1COCCN1c1cc(C2(O)CC3CCC(C2)O3)c2cnn(-c3ccn[nH]3)c2n1 (stereo not given) + Cc1[nH]c2ccc(F)cc2c1-c1nc2c3cccnc3c3ncccc3c2[nH]1
measuredQuantity: IC50
resultValue: < 31.6 nM
//
compound: CC(=O)O[C@H]1C(=O)[C@@]2(C)[C@H]([C@H](OC(=O)c3ccccc3)[C@]3(O)C[C@H](OC(=O)[C@H](O)[C@@H](NC(=O)c4ccccc4)c4ccccc4)C(C)=C1C3(C)C)[C@]1(OC(C)=O)CO[C@@H]1C[C@@H]2O + CN(C)c1ccc(Nc2c3ccc(NC(=O)CCN4CCCC4)cc3nc3cc(NC(=O)CCN4CCCC4)ccc23)cc1
measuredQuantity: IC50
resultValue: < 31.6 nM
//
compound: CCc1c2c(nc3ccc(O)cc13)-c1cc3c(c(=O)n1C2)COC(=O)[C@]3(O)CC + Cc1[nH]c2ccc(F)cc2c1-c1nc2c3cccnc3c3ncccc3c2[nH]1
measuredQuantity: IC50
resultValue: < 0.999 nM
